Ref: patent US9187415B2

# assaySystem: HIV-1 protease (wild type) (Human immunodeficiency virus type 1 group M subtype B, UniProt P04585)
# Construct: made in house; host or cells: Escherichia coli
# test: Protease Inhibition Assay (Pepcleave), inhibition of microbial expressed HIV protease
# Assay type: biochemical
# conditionsUsed: wild-type HIV-1 protease; mean of at least two independent experiments; read-out: Pepcleave Enzyme inhibition IC50
measurementKind: pIC50
Remember the convention: pIC50 equals -log10 of concentration in molar.

Some molecules with known pIC50 results, for comparison:
Indicate the recorded pIC50 value for this molecule: COC(=O)N[C@H](C(=O)Nc1ccccc1CC[C@@H](CO)N(CC1CC(F)(F)C1)S(=O)(=O)c1ccc2ncsc2c1)C(c1ccccc1)c1ccccc1 [Example 12]
9.05

Indicate the recorded pIC50 value for this molecule: COC(=O)N[C@@H](Cc1ccccc1Cl)C(=O)Nc1ccccc1CC[C@@H](CO)N(CCC(C)C)S(=O)(=O)c1ccc(N)cc1 [Example 14]
8.92

Indicate the recorded pIC50 value for this molecule: COC(=O)N[C@H](C(=O)Nc1cccc(C[C@@H](CO)N(C(C)C)S(=O)(=O)c2ccc(CO)cc2)c1)C(c1ccccc1)c1ccccc1 [Example 35]
7.72

Query molecule follows.
Indicate the recorded pIC50 value for this molecule: COC(=O)N[C@H](C(=O)Nc1cnccc1SC[C@@H](CO)N(Cc1cnoc1)S(=O)(=O)c1ccc2ncsc2c1)C(c1ccccc1)c1ccccc1 [Example 27]
8.16

* * *

# assaySystem: HIV-1 protease (wild type) (Human immunodeficiency virus type 1 group M subtype B, UniProt P04585)
# Construct: made in house; host or cells: Escherichia coli
# test: Protease Inhibition Assay (Pepcleave), inhibition of microbial expressed HIV protease
# Type: biochemical
measurementKind: pIC50
Remember the convention: pIC50 equals -log10 of concentration in molar.

Some compounds with known pIC50 results, for comparison:
Indicate the recorded pIC50 value for this compound: [2H]C([2H])([2H])C([2H])([2H])C([2H])([2H])N([C@H](CO)CCc1ccccc1NC(=O)[C@@H](NC(=O)OC)C(c1ccccc1)c1ccccc1)S(=O)(=O)c1ccc2ncsc2c1
9.15

Indicate the recorded pIC50 value for this compound: COC(=O)N[C@H](C(=O)Nc1ccccc1CC[C@@H](CO)N(Cc1cn[nH]c1)S(=O)(=O)c1ccc(N)cc1)C(c1ccccc1)c1ccccc1
10.15

Indicate the recorded pIC50 value for this compound: COC(=O)N[C@H](C(=O)Nc1ccccc1CC[C@@H](CO)N(Cc1cncnc1C)S(=O)(=O)c1ccc(N)cc1)C(c1ccccc1)c1ccccc1
9.15

Indicate the recorded pIC50 value for this compound: COC(=O)N[C@H](C(=O)Nc1ccccc1CC[C@@H](CO)N(CCC(C)C)S(=O)(=O)c1ccc2ncsc2c1)C(c1ccccc1)c1ccccc1
9.52

Indicate the recorded pIC50 value for this compound: COC(=O)N[C@H](C(=O)Nc1ccccc1CC[C@@H](CO)N(C(C)C)S(=O)(=O)c1ccc(N)cc1)C(c1ccccc1)c1ccccc1
8.92

Query compound follows.
Indicate the recorded pIC50 value for this compound: COC(=O)N[C@H](C(=O)Nc1cccc(C[C@@H](CO)N(CCC(C)C)S(=O)(=O)c2ccc(CO)cc2)c1)C(c1ccccc1)c1ccccc1
8.62
